meta.source: patent US20060035925A1

# Tested on: Human breast cancer cell line ZR-75-1
# Assay summary: Caspase cascade activation assay (N-(Ac-DEVD)-N'-ethoxycarbonyl-R110 fluorogenic substrate) in ZR-75-1 cells
# Type: cell-based
# Settings: ZR-75-1 cells, 24 h incubation with compound; ratio of net RFU (T=3 h) of test compound to control
Listed compounds paired with reported Caspase activity (Ratio) ZR-75-1

>  <Compound>
N#CC1=C(N)OC2C3=CC=NC3=CC=C2C1c1cc(F)cc(F)c1 (stereo not drawn) [Example 2K]

>  <Caspase activity (Ratio) ZR-75-1>
6.9

$$$$
>  <Compound>
COc1cc(C2C(C#N)=C(N)Oc3cc(-n4cccc4)ccc32)cc(Br)c1OC (stereo not drawn) [Example 67]

>  <Caspase activity (Ratio) ZR-75-1>
6.9

$$$$
>  <Compound>
Cc1cncc(C2C3=CC=C4N=CC=C4C3OC(N)=C2C#N)n1 (stereo not drawn) [Example 58]

>  <Caspase activity (Ratio) ZR-75-1>
7.0

$$$$
